- Test system: HIV
- Assay overview: Table 1 IC50 of the examples (assay method not given; patent concerns inhibiting HIV replication)
- Type: cell-based
- Measurement context: Human immunodeficiency virus 1
pIC50: −log10 of the molar value.
Measurement label: pIC50

I. COc1cc(C(=O)N2CCc3c2cc(C)c([C@H](OC(C)(C)C)C(=O)O)c3-c2ccc(C)cc2)cc(F)c1F
II. Cc1ccc(C(=O)N2CCc3c2cc(C)c([C@H](OC(C)(C)C)C(=O)O)c3-c2ccc3c(c2C)CCCO3)cn1 (atropisomer, axis not shown)
III. Cc1cc2c(c(-c3cc(F)c4c(c3C)CCCO4)c1[C@H](OC(C)(C)C)C(=O)O)CCN2C(=O)c1cncc(F)c1 (atropisomer, axis not shown)
Asked: In this exercise, place the 3 compounds in ascending sequence of their recorded pIC50. Provide the labels, sequenced as the question asks.
Given back: II, III, I
